A collection of molecules and their measured pIC50
biological target: protein-protein interaction between Kras and SOS1 (biotin-tagged human Kras loaded with GDP, His-tagged human SOS1) (Homo sapiens (Human), UniProt P01116, G12D); experiment: Protein-protein interaction inhibition between Kras and SOS1 (KrasG12D-SOS PPI) using AlphaScreen; assay type: biochemical; details: AlphaScreen; biotin-tagged human Kras loaded with GDP, His-tagged human SOS1; read-out: KRAS G12D-SOS PPI IC50;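 also: kras produced in E. coli, Ni-coupled donor beads and streptavidin acceptor beads, excitation 680 nm with emission detected at 520–620 nm via singlet oxygen transfer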
Bridge positions count the residues as written; N and C are the ends. Square brackets hold non-standard residues; d marks the D form. Peptide text beside a SMILES is read from it. * marks the point of attachment. hPhe(3-Cl-4-CF3) = N[C@@H](CCc1ccc(C(F)(F)F)c(Cl)c1)C(=O)O; NMeGly(cPent) = CN[C@H](C(=O)O)C1CCCC1; NMeCha = CN[C@@H](CC1CCCCC1)C(=O)O; NMeD = CN[C@@H](CC(=O)O)C(=O)O; NMeL = CN[C@@H](CC(C)C)C(=O)O; NMeS = CN[C@@H](CO)C(=O)O; NMeA = CN[C@@H](C)C(=O)O; Piperidide = C1CCN(*)CC1; Ac5c = NC1(C(=O)O)CCCC1; Aze = O=C(O)[C@@H]1CCN1; Sar = CNCC(=O)O; Propyl = CCC*
Worth noting: pIC50 values are minus log10 of concentrations stated in mol/L.

MOLECULE | pIC50
CC[C@H](C)[C@@H]1NC(=O)[C@H](CC(C)C)N(C)C(=O)C[C@@H](C(=O)N(C)C)N(C)C(=O)[C@H](C2CCCC2)N(C)C(=O)C2(CCCC2)NC(=O)[C@@H]2CCCN2C(=O)[C@H](CCc2ccc(C(F)(F)F)c(Cl)c2)NC(=O)CN(C)C(=O)[C@H](CC2CCCCC2)N(C)C(=O)[C@@H]2CCN2C(=O)[C@H](C)N(C)C1=O [Compound 1777] ([NMeL]I[NMeA][Aze][NMeCha][Sar][hPhe(3-Cl-4-CF3)]P[Ac5c][NMeGly(cPent)][NMeD]-NMe2; lactam N-11) | 9.20

Moving on to another molecule below.
For CCCOC[C@H]1C(=O)N(C)CC(=O)N[C@@H](CCc2ccc(C(F)(F)F)c(Cl)c2)C(=O)N2CCC[C@H]2C(=O)NC2(CCCC2)C(=O)N(C)[C@@H](C2CCCC2)C(=O)N(C)[C@H](C(=O)N2CCCCC2)CC(=O)N(C)[C@@H](CC(C)C)C(=O)N[C@@H]([C@@H](C)CC)C(=O)N(C)[C@@H](C)C(=O)N2CC[C@H]2C(=O)N1C [Compound 415] ([NMeL]I[NMeA][Aze][NMeS](Propyl)[Sar][hPhe(3-Cl-4-CF3)]P[Ac5c][NMeGly(cPent)][NMeD]-Piperidide; lactam N-11) the molecule record lists pIC50 as 8.82
